assay.target: Human adrenergic α2B receptor (Homo sapiens, UniProt P18089)
protocol.details: Radioligand binding, adrenergic α2B (Protocol Group B)
Set-up: purchased Milipore (Millipore)
particulars: 10 nM compound; Protocol Group B; 0.01 µM
quantity.kind: Percentage inhibition of ligand binding, Adrenergic α2B (10 nM) (%)

CC(O)(Cn1c2c(c3cc(Cl)cc(F)c31)CN1CCCC1C2)c1ccncc1 (single isomer, unassigned) [86a]: −2
Cc1ccc2c(c1)c1c(n2CC(C)(O)c2cccnc2)CC2CCC1N2C (single isomer, unassigned) [101b]: 2
Cc1cc(F)c2c(c1)c1c(n2CC(C)(O)c2cccnc2)CCN2CCCC12 (single isomer, unassigned) [79d]: −7
Cc1ccc2c(c1)c1c(n2CC(C)(O)c2cccnc2)CCN(C)C1CO (single isomer, unassigned) [16b]: 4
Cc1ccc2c(c1)c1c(n2CC(C)(O)c2ccc(F)cc2)CC2CCC1N2C (single isomer, unassigned) [102c]: −14
Cc1ccc2c(c1)c1c(n2CC(O)c2ccncc2)CNC2CCCC12 (single isomer, unassigned) [34d]: 14
Cc1cc(F)c2c(c1)c1c(n2CC(O)c2ccncc2)CCN2CCCC12 (single isomer, unassigned) [137a]: 83
Cc1ccc2c(c1)c1c(n2CC(C)(O)c2ccc(N(C)C)nc2)CCN(C)C1 (single isomer, unassigned) [39b]: 5

[P] Cc1cc(F)c2c(c1)c1c(n2CC(C)(O)c2ccncc2)CCN2CCCC12 (single isomer, unassigned) [81c]
[Q] Cc1ccc2c(c1)c1c(n2CC(C)(O)c2cnc3ccccc3c2)CCN(C)C1 (single isomer, unassigned) [32b]
Qu. For the pair P and Q , which entry has the numerically smaller recorded Percentage inhibition of ligand binding, Adrenergic α2B (10 nM)? Could you answer with the label of the item you picked?
Ans. P

[A] Cc1cc2c3c(n(CC(C)(O)c4ccncc4)c2cc1Cl)CCN1CCCC31 (single isomer, unassigned) [50c]
[B] Cc1cc(F)c2c(c1)c1c(n2CC(O)c2ccncc2)CCN2CCCC12 (single isomer, unassigned) [137b]
[C] Cc1cc(C)c2c(c1)c1c(n2CC(C)(O)c2cccnc2)CCN2CCCC12 (single isomer, unassigned) [44d]
Qu. Number of compounds to sort: 3. Sort criterion: Percentage inhibition of ligand binding, Adrenergic α2B (10 nM), ascending. Write the labels, ordered according to the request.
Ans. C, A, B

* * *

assay.target: Human adrenergic α2B receptor (Homo sapiens, UniProt P18089)
Sequence (P18089 1-450): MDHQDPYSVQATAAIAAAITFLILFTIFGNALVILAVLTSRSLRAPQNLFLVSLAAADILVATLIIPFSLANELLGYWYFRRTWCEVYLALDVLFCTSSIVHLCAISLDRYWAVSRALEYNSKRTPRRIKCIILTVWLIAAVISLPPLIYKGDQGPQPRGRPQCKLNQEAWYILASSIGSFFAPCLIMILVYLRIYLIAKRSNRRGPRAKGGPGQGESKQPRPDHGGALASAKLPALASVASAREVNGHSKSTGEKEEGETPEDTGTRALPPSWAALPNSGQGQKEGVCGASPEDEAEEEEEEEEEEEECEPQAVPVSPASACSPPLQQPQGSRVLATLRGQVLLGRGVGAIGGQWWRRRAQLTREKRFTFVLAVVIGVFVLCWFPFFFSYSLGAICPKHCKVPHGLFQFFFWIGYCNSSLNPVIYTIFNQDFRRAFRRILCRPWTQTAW
protocol.details: Radioligand binding, adrenergic α2B (Protocol Group B)
Parameters: purchased Milipore (Millipore)
particulars: Protocol Group B; estimated Ki; read-out: Ki α2B
quantity.kind: Ki (nM)

See these solved cases before continuing.
Cc1ccc2c(c1)c1c(n2CC(OCC2CCC2)c2ccncc2)CCN2CCCC12 (single isomer, unassigned) [138b]: 1.45
Cc1cc(F)c2c(c1)c1c(n2CC(C)(O)c2cccnc2)CCN2CCCC12 (stereo not drawn) [Compound No. 79a]: 0.77
Cc1cc(F)cc2c3c(n(CC(O)c4ccncc4)c12)CCN1CCCC31 (single isomer, unassigned) [136a]: 1.5
CC(O)(Cn1c2c(c3cc(C(F)(F)F)ccc31)CN1CCCC1C2)c1cccnc1 (single isomer, unassigned) [85a]: 32.6
CC(O)(Cn1c2c(c3cc(F)cc(Cl)c31)C1CCCN1CC2)c1ccncc1 (single isomer, unassigned) [88a]: 1.45

[A] CCOC(Cn1c2c(c3cc(C)ccc31)CN(C)CC2)c1ccncc1 (single isomer, unassigned) [43a]
[B] Cc1ccc2c(c1)c1c(n2CC(OCC2CCC2)c2ccncc2)CCN(C)C1 (single isomer, unassigned) [59a]
Qu. Exercise: compare A and B ; which one has the greater Ki? Could you answer with the label of the item you picked?
Ans. A

[A] Cc1ccc2c(c1)c1c(n2CC(C)(O)c2cnc3ccccc3c2)CCN(C)C1 (single isomer, unassigned) [32a]
[B] CC(O)(Cn1c2c(c3cc(Cl)cc(F)c31)C1CCCN1CC2)c1ccncc1 (single isomer, unassigned) [52b]
Qu. Exercise: compare A and B ; which one has the greater Ki? Could you answer with the label of the item you picked?
Ans. A
(A: 7.9 nM, B: 0.71 nM)

[I] CC(O)(Cn1c2c(c3cc(F)ccc31)C1CCCN1CC2)c1cccnc1 (stereo not drawn)
[II] Cc1cc2c3c(n(CC(C)(O)c4ccncc4)c2cc1Cl)CCN1CCCC31 (single isomer, unassigned) [50a]
Qu. For the pair I and II , which entry has the numerically smaller recorded Ki? Could you answer with the label of the item you picked?
Ans. II
(II: 0.75 nM, I: 1.58 nM)

[a] Cc1ccc2c(c1)c1c(n2C[C@@H](OC2CCCC2)c2ccncc2)CCN2CCC[C@H]12
[b] Cc1ccc2c(c1F)c1c(n2CC(C)(O)c2cccnc2)CCN2CCCC12 (single isomer, unassigned) [87c]
Qu. For the pair a and b , which entry has the numerically smaller recorded Ki? Could you answer with the label of the item you picked?
Ans. b
